Recorded melting point, one value per entry.

Please review the entries below; each comes with its answer.
[
  {
    "molecule": "FC(F)(F)c1ccc(NC(=S)Nc2cc(C(F)(F)F)nc(C(F)(F)F)c2)cc1",
    "melting point": "125 to 132 °C"
  },
  {
    "molecule": "CCOC1CC2(C)C(CCC3C4CCC(C(=O)OC)C4(C)CC(NC4CCCCC4)C32)CC1O (centres undefined)",
    "melting point": "110 to 112 °C"
  },
  {
    "molecule": "CN(C)C=CC(=O)c1ccc(OCc2ccccc2)cc1",
    "melting point": "138 °C"
  },
  {
    "molecule": "Clc1nccnc1NCCOc1ccccc1",
    "melting point": "51 to 53 °C"
  },
  {
    "molecule": "NC(=O)NC1CCC(=O)c2ccsc21 (centres undefined)",
    "melting point": "240 to 241 °C"
  },
  {
    "molecule": "Cc1cc2c(cc1C)C(C)(C)N(Cc1ccccc1)C2(C)C",
    "melting point": "98 to 100 °C"
  },
  {
    "molecule": "CN(C)C=NS(=O)(=O)c1cc(CCNC(=O)C(F)(F)F)ccc1OCCOC(F)(F)F",
    "melting point": "111 to 114 °C"
  },
  {
    "molecule": "COCCOc1cc(NC(=O)OC(C)(C)C)c(NC(=O)CC(=O)c2cccc(C#N)c2)cc1C#Cc1ccccc1",
    "melting point": "175 to 176 °C"
  },
  {
    "molecule": "COc1ccc(C2=NN(C3CCN(S(=O)(=O)c4ccc(C#N)cc4)CC3)C(=O)C(C)(C)C2)cc1OC",
    "melting point": "161 to 163 °C"
  },
  {
    "molecule": "CCCCOCCOc1ccc(-c2ccc3c(c2)C=C(C(=O)Nc2ccc(CSc4nnc(C)o4)cc2)CCN3CC(C)C)cc1",
    "melting point": "107 to 109 °C"
  }
]

Name the recorded melting point of the item "NC(=O)c1cc(-c2ccc(Cl)cc2)[nH]c1Cl" in your answer.
> 200 °C

Give the measured melting point for "c1ccc(CN2CCC3(CC2)Oc2ccccc2Cn2cccc23)cc1"
109 to 111 °C

Could you please provide reported melting point for "Cn1nc(-c2c(F)cccc2Cl)nc1C(=O)c1ccc(Cl)cc1" ? Thanks!
108 to 111 °C

Give the measured melting point for COc1ccc(C2=NN(Cc3cccc(C(=O)O)c3)C(=O)[C@H]3CCCC[C@@H]23)cc1OC (relative stereo)
133 to 136 °C

Give reported melting point value for "CN(C)C=C(Cc1ccccc1)C(=O)c1cccnc1Cl"
115 to 120 °C

====

List of melting point values.

Some entries whose results are on file:
[
  {
    "compound": "CC(N)c1nnc(Cc2cccc3ccccc23)[nH]c1=O (centres undefined)",
    "melting point": "180 °C"
  },
  {
    "compound": "CCCCCCCCCCCCCCOc1cccc(C(=O)N(CC(=O)O)CC(=O)O)c1",
    "melting point": "96 to 99 °C"
  },
  {
    "compound": "O=C(C1CCCCCC1)N1c2ccccc2CCC1CN1CCN(c2cccc3[nH]ccc23)CC1 (centres undefined)",
    "melting point": "167 to 173 °C"
  },
  {
    "compound": "O=C(Nc1ccc(-n2nc(C(F)(F)F)cc2C(F)(F)F)cc1)c1ccccc1Oc1ccccc1",
    "melting point": "108 to 109 °C"
  },
  {
    "compound": "N#Cc1c(N2CCCCC2)cc(-c2cccs2)c2c1-c1ccccc1C2=O",
    "melting point": "172 to 174 °C"
  }
]

--- query ---
Provide melting point value for the following compound: "O=C(CNC(=O)c1ccccc1C(=O)O)Nc1ccc(C(=O)C[N+](=O)[O-])c(Cl)c1"
206 to 209 °C

====

measuredQuantity: melting point

Answered examples (10):
[
  {
    "molecule": "O=C(O)c1cc(O)c(O)c([N+](=O)[O-])c1",
    "melting point": "224 to 226 °C"
  },
  {
    "molecule": "CN(CCNC(=NCCCOc1cccc(CN2CCCCC2)c1)NC#N)CCN(Cc1ccc(F)cc1)c1ccccn1",
    "melting point": "106 °C"
  },
  {
    "molecule": "O=C(N[C@H]1CC[C@H](CCN2CCN(c3nccc4c3CCO4)CC2)CC1)c1ccc(N2CCCCC2)cc1",
    "melting point": "214 °C"
  },
  {
    "molecule": "CCOC(=O)C(=CNc1nnc(C(F)(F)F)s1)C(=O)c1cc(F)c(Cl)nc1Cl",
    "melting point": "73 to 76 °C"
  },
  {
    "molecule": "O=C(Nc1ccc(CCNc2ncccn2)cc1)c1cccs1",
    "melting point": "191 to 192 °C"
  },
  {
    "molecule": "CCc1nnc2ccc(-c3ccc(Cl)cc3)nn12",
    "melting point": "197 to 199 °C"
  },
  {
    "molecule": "O=[N+]([O-])c1cc(C(c2ccc(O)c([N+](=O)[O-])c2)(C(F)(F)F)C(F)(F)F)ccc1O",
    "melting point": "119 to 122 °C"
  },
  {
    "molecule": "O=C1c2cc([N+](=O)[O-])ccc2OCCC1Br (stereo not given)",
    "melting point": "115 to 118 °C"
  },
  {
    "molecule": "CNC(=O)N(C)c1cc(C)on1",
    "melting point": "77 to 78 °C"
  },
  {
    "molecule": "N#Cc1c[nH]cc1-c1ccccc1C(F)(F)F",
    "melting point": "105 to 107 °C"
  }
]

Respond only with melting point recorded for CC(C)(C)C(NC(=O)c1ccc(Cl)cc1)Nc1c(Nc2cccc(F)c2)c(=O)c1=O (stereo not given)
271 to 272 °C

====

measuredQuantity: melting point

[
  {
    "compound": "CCc1cc2c(cc1Oc1ccc(C(=O)O)cc1C)C(C)(C)CCC2(C)C",
    "result": "210 to 211 °C"
  },
  {
    "compound": "COC(=O)c1cc(CBr)ccc1[N+](=O)[O-]",
    "result": "55 to 56 °C"
  },
  {
    "compound": "CC(NC(=O)Cc1cc(F)cc(F)c1)C(=O)NC1C(=O)NC(c2ccncc2)c2ccccc21 (centres undefined)",
    "result": "100 °C"
  },
  {
    "compound": "Cc1ccc(-c2c(C#N)n(C)c(=O)c3ncccc23)cc1",
    "result": "268 to 270 °C"
  },
  {
    "compound": "O=C(NCCCn1ncnn1)c1ccccc1NS(=O)(=O)c1cccc(C(F)(F)F)c1",
    "result": "67 to 69 °C"
  }
]

In the following, a different compound is considered.
Report melting point for "COc1cc2c(cc1Nc1ncc(Cl)c(Nc3cc(C#N)ccc3OC)n1)CCN(CC(N)=O)CC2"
100 to 125 °C

====

measuredQuantity: melting point

[
  {
    "compound": "CNC(=O)c1cnn(-c2ccc(OC)cc2)c1Cl",
    "measuredQuantity": "melting point",
    "result": "144 to 146 °C"
  }
]

Continue with the next compound.
Give me measured melting point, please, for this compound: CC(C)(C)C1OCC(S)(CCO)CO1 (stereo unspecified)
68 °C

====

measuredQuantity: melting point

# count of solved cases: 2
[
  {
    "compound": "COc1cc(C)ccc1Oc1ccc([N+](=O)[O-])cc1",
    "melting point": "78 to 80 °C"
  },
  {
    "compound": "OC1CSC(Oc2cccc(-c3ccncc3)n2)C(O)C1O (stereo unspecified)",
    "melting point": "178 °C"
  }
]

Annotate the compound Cc1ccc(N2C(=O)C(O)=C(C(=O)c3ccc(C(C)C)cc3)C2c2ccc(F)cc2)nn1 (stereo unspecified) with its measured melting point.
273 to 278 °C

Return melting point for the following compound: "O=c1[nH]c2ncc(-c3ccc(O)cc3)nc2n1CCO"
308 to 310 °C

Return the recorded melting point value; entry: "O=C(Nc1ccccc1S(=O)(=O)N1CCCCC1)N[C@@H](Cc1ccc(Oc2nccc3cnccc23)cc1)C(=O)O"
140 °C

Give melting point for the following compound: "N#CSCCNc1cc(Cl)ccc1[N+](=O)[O-]"
115 to 116 °C

Check the records and state melting point for "Nc1ccccc1OCc1nc(Cl)ccc1Cl"
74 to 75 °C

Give melting point for the following compound: N#Cc1ccc2c(c1)CC[C@@H](c1ccc(F)cc1)[C@H]2Cn1cncn1 (relative stereo)
149 °C

Please indicate melting point recorded for "Cc1ccc2c(c1)S(=O)(=O)NCN2CCF"
88 to 90 °C

Determine from records and report melting point for "CCOC(=O)[C@H](CCC1CCCCC1)N[C@@H]1COc2ccccc2N(Cc2ccc(C(C)C)cc2)C1=O"
80 °C

Supply recorded melting point for "CN(C)C(=O)Nc1ccc(OCCc2ccccc2)c(N)c1" here.
125 to 126 °C

Using known records, supply melting point for "COc1ccc(CCNC(=S)Nc2nc3ccccc3[nH]2)cc1"
166 to 172 °C

The measurements presented in this section are drawn from a melting point compilation (Tetko et al.; mined from patent text by program, amines drawn as free bases though some values may be those of a salt).
